Target or system: BoNT/A2 holotoxin (FRI-H1A2) (Clostridium botulinum, UniProt Q45894 2-1296)
Sequence (Q45894 2-1296): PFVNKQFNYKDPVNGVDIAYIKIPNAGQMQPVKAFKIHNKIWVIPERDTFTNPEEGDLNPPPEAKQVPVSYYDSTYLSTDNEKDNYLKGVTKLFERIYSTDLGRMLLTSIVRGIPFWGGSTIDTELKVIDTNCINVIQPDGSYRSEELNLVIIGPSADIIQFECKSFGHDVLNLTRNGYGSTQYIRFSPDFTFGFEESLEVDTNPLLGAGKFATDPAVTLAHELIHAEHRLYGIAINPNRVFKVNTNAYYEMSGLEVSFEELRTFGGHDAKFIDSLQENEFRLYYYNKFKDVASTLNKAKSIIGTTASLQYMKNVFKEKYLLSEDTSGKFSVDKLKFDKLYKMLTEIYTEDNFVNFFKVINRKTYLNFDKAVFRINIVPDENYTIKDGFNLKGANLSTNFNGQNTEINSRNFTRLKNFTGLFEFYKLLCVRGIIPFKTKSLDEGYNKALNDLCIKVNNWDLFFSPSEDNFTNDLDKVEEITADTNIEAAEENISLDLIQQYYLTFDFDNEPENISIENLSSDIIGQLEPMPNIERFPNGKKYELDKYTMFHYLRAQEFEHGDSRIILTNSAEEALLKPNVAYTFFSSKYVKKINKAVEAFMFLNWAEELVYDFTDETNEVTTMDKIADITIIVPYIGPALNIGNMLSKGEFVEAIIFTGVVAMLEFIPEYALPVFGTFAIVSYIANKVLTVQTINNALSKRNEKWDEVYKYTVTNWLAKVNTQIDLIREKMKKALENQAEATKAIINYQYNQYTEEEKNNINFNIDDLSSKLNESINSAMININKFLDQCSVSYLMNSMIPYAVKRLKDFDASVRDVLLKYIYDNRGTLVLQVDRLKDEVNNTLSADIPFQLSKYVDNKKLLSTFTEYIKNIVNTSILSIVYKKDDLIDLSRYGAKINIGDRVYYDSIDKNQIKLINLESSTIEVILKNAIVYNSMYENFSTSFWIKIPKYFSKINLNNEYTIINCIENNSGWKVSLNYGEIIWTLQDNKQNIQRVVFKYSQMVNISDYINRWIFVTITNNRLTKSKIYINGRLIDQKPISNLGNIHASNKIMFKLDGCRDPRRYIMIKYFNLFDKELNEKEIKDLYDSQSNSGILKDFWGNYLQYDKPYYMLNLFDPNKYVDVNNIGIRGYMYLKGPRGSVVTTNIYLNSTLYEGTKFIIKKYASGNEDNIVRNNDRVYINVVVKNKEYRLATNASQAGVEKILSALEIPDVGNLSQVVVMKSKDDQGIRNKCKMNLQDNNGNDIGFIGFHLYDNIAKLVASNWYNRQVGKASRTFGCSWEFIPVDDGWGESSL
Test summary: yeast scFv FACS
pKd: −log10 of the molar value.
Cut-off 7 on pKd, inclusive. At or above means criterion met; below means criterion not met.

Please review the entries below; each comes with its answer.
10B4 scFv (scFv, mouse) scFv: QVQLKESGPGLVKPSQTVSLTCTVTGYSITNGNHWWNWIRQVSGSKLEWIGYISSSGYTDINPSLKSRISITRDTSKNQLFLQLNSVTTEDIATYYCARDDGYYEALDYWGQGTSVTVSSVDLKSGGSTSGSGKPGSGEGSSGSARDIVMSQSPAIMSASPGEKVTLTCSASSSVSSNYLYWYQQKPGSSPKLWIYSTSNLASGVPARFSGSGSGTSYSLTISRVEAEDAATYYCQQWSSNPPTFGGGTKLEIK :: criterion not met
7C8 scFv (scFv, mouse) scFv: LQLKQSGPGLVKPSQSLSLTCSVTGYSITSGYYWYWIRQFPGNKLEWMGYISYDGSNNYNPSLKNRISITRDTSKNQFFLKLNSVTTEDTATYYCARNLGLWYFDVWGTGTPLTVSSVDLKSGGSTSGSGKPGSGEGSSGSAREIVLTQSPAILSASPGEKVTMTCRASSSVRYMHWYQQKPGSSPKPWIYATSNLASGVPARFSGSGSGTSYSLTISRVEAEDAATYYCQQWSGNAPTFGGGTKLEIK :: criterion met

Q: Please indicate if the recorded pKd for 12A11 scFv (scFv, mouse) scFv: DVQLQESGPGLVKPSQSLSLTCSVTGYSITGGYYWNWIRQFPGNKLEWMGYISYDGSNNYNPSLKNRISITRDTSKNQFFLKLNSVTTEDTATYYCARNMGLWYFDVWGTGTPVTVSAVDLKSGGSTSGSGKPGSGEGSSGSARQIVLTQSPANLSASPGEKVTMTCSASSSVSYMHWYQQKPGSSPKPWIYATSNLASGVPARFSGSGSGTSYSLTISRMEAEDAATYYCQQWSSYPPMYTFGGGTKLELK meets or exceeds 7.
A: criterion met

Q: Please indicate if the recorded pKd for 10F9 scFv (scFv, mouse) scFv: EVQLQQSGAELVKPGASVKLSCKASGYTFTSYWMHWIKQRPGQGLEWIGVIDPSDSYTNYNQKFKGKATLTVDTSSSTAYMQLSSLTSEDSAVYYCATGGNGFFDYWGQGTTLTVSSVDLKSGGSTSGSGKPGSGEGSSGSARDIVLTQSPASLAVSLGQRATISCRASESVDYDGDSYMNWYQQKPGQPPKLLIYAASNLESGIPARFSGSGSGTDFTLNIHPVEEEDAATYYCLQSNEAPWTFGGGTKLELK meets or exceeds 7.
A: criterion not met
